Condition summary: 313.15 K; 101 kPa; Liquid; Linear variable-path acoustic interferometer
Property measured: speed of sound (m/s)
Give the value in m/s but do not write m/s after it.

stdin: # return recorded speed of sound for input C1CCOC1 [tetrahydrofuran]
stdout: 1212

stdin: # return recorded speed of sound for input Nc1ccccc1
stdout: 1583

stdin: # return recorded speed of sound for input CCNc1ccccc1
stdout: 1462

stdin: # return recorded speed of sound for input CNc1ccccc1
stdout: 1512

* * *

Assign mass density to each entry below.
Condition summary: 313.15 K; 101 kPa; Liquid; Pycnometric method
Give the value in kg/m3 but do not write kg/m3 after it.

stdin: # return recorded mass density for input CCNc1ccccc1
stdout: 944.3

stdin: # return recorded mass density for input Nc1ccccc1
stdout: 1004.9

stdin: # return recorded mass density for input CNc1ccccc1
stdout: 969.8

stdin: # return recorded mass density for input C1CCOC1 [tetrahydrofuran]
stdout: 867.2
